What inhibition at 5 µM was measured for each of the following?
# Test target: vanilloid receptor 1 (VR1/TRPV1 receptor) (Homo sapiens, UniProt Q8NER1)
# Assay notes: Functional FLIPR Ca2+ influx assay on vanilloid receptor 1, capsaicin (Cap) stimulus
# Assay type: cell-based
# Condition details: inhibition at 5 μM, read-out: (f) inhibition (human being), Cap, @5 μM
One number for each entry, in %.

Solved entries (count: 5):
1. Cc1ccc(-c2nc(C(F)(F)F)ccc2CNC(=O)C(C)c2ccc(CNS(C)(=O)=O)c(F)c2)cn1 (stereo not drawn) [Example 72] = 27
2. Cc1ncccc1-c1nc(C(F)(F)F)ccc1CNC(=O)C(C)c1ccc(CNS(C)(=O)=O)c(F)c1 (stereo not drawn) [Example 71] = 19
3. CC(C(=O)NCc1ccc(C(F)(F)F)nc1-c1cccnc1)c1ccc(CNS(C)(=O)=O)c(F)c1 (stereo not drawn) [Example 67] = 15
4. Cc1cccc(-c2nc(C(F)(F)F)ccc2CNC(=O)[C@H](C)c2ccc(CNS(C)(=O)=O)c(F)c2)c1 [Example 26] = 33
5. Cc1cccc(-c2nc(C(F)(F)F)ccc2CNC(=O)C(C)c2cccc(CNS(C)(=O)=O)c2)c1 (stereo not drawn) [Example 1] = 44

Proceeding to the next compound to report its inhibition at 5 µM.
QUERY: // returns reported inhibition at 5 µM for input CC(C(=O)NCc1ccc(C(F)(F)F)nc1-c1cccc(O)c1)c1ccc(CNS(C)(=O)=O)c(F)c1 (stereo not drawn) [Example 59]
RESULT: 20

###

# Test target: vanilloid receptor 1 (VR1/TRPV1 receptor) (Homo sapiens, UniProt Q8NER1)
# Assay notes: Functional FLIPR Ca2+ influx assay on vanilloid receptor 1, capsaicin (Cap) stimulus
# Format: cell-based
# Condition details: Ki from IC50 by Cheng-Prusoff, read-out: (f) Ki (human being) [nM], Cap
Label key: yes means Ki under 20 nM; no means Ki of 20 nM or more.

QUERY: is_below(Ki, 20 nM) for Cc1ccc(-c2nc(C(F)(F)F)ccc2CNC(=O)C(C)c2ccc(CNS(C)(=O)=O)c(F)c2)cc1 (stereo not drawn) [Example 29] ?
RESULT: no

QUERY: is_below(Ki, 20 nM) for CCS(=O)(=O)NCc1ccc(C(C)C(=O)NCc2ccc(C(F)(F)F)nc2-c2cccc(C)c2)cc1F (stereo not drawn) [Example 83] ?
RESULT: no

QUERY: is_below(Ki, 20 nM) for Cc1cc(C)cc(-c2nc(C(F)(F)F)ccc2CNC(=O)C(C)c2ccc(CNS(C)(=O)=O)c(F)c2)c1 (stereo not drawn) [Example 32] ?
RESULT: no

QUERY: is_below(Ki, 20 nM) for Cc1cccc(-c2nc(C(F)(F)F)ccc2CNC(=O)Nc2ccc(CNS(N)(=O)=O)cc2)c1 [Example 84] ?
RESULT: yes

QUERY: is_below(Ki, 20 nM) for Cc1cccc(-c2cc(C(F)(F)F)ccc2CNC(=O)C(C)c2ccc(CNS(C)(=O)=O)c(F)c2)c1 (stereo not drawn) [Example 22] ?
RESULT: no

QUERY: is_below(Ki, 20 nM) for COc1ccccc1-c1nc(C(F)(F)F)ccc1CNC(=O)C(C)c1ccc(CNS(C)(=O)=O)c(F)c1 (stereo not drawn) [Example 60] ?
RESULT: no

QUERY: is_below(Ki, 20 nM) for Cc1cccc(-c2nc(C(F)(F)F)ccc2CNC(=O)C(C)c2ccc(CNS(N)(=O)=O)c(F)c2)c1 (stereo not drawn) [Example 85] ?
RESULT: yes

###

# Test target: vanilloid receptor 1 (VR1/TRPV1 receptor) (Homo sapiens, UniProt Q8NER1)
# Assay notes: Functional FLIPR Ca2+ influx assay on vanilloid receptor 1, capsaicin (Cap) stimulus
# Assay type: cell-based
# Condition details: Ki from IC50 by Cheng-Prusoff, read-out: (f) Ki (human being) [nM], Cap
Value kind: Ki (nM)
Numbers only, in nM.

1. COCc1cccc(-c2nc(C(F)(F)F)ccc2CNC(=O)C(C)c2ccc(CNS(C)(=O)=O)c(F)c2)c1 (centres unmarked) [Example 49] = 28
2. CC(C(=O)NCc1ccc(C(F)(F)F)nc1-c1ccccc1)c1ccc(CNS(C)(=O)=O)c(F)c1 (centres unmarked) [Example 5] = 31
3. Cc1cccc(-c2cc(C(C)(C)C)ccc2CNC(=O)C(C)c2ccc(CNS(C)(=O)=O)c(F)c2)c1 (centres unmarked) [Example 21] = 37
4. Cc1cccc(-c2nc(C(F)(F)F)ccc2CNC(=O)C(C)c2ccc(CNS(C)(=O)=O)c(F)c2)c1 (centres unmarked) [Example 24] = 6
5. CC(C(=O)NCc1ccc(C(F)(F)F)nc1-c1cncc(Cl)c1)c1ccc(CNS(C)(=O)=O)c(F)c1 (centres unmarked) [Example 73] = 24

For each of the molecules below, note its Ki.
1. Cc1ccc(-c2nc(C(F)(F)F)ccc2CNC(=O)C(C)c2ccc(CNS(C)(=O)=O)c(F)c2)cc1C (centres unmarked) [Example 31]
2. Cc1cccc(-c2nc(C(F)(F)F)ccc2CNC(=O)C(C)c2ccc(CNS(C)(=O)=O)c(Cl)c2)c1 (centres unmarked) [Example 77]
3. CC(C(=O)NCc1ccc(C(F)(F)F)nc1-c1cc(F)cc(F)c1)c1ccc(CNS(C)(=O)=O)c(F)c1 (centres unmarked) [Example 11]
4. CC(C)c1cccc(-c2nc(C(F)(F)F)ccc2CNC(=O)C(C)c2ccc(CNS(C)(=O)=O)c(F)c2)c1 (centres unmarked) [Example 50]
5. COc1ccc(-c2nc(C(F)(F)F)ccc2CNC(=O)C(C)c2ccc(CNS(C)(=O)=O)c(F)c2)cc1F (centres unmarked) [Example 14]
6. CC(C(=O)NCc1ccc(C(F)(F)F)nc1-c1cccc(F)c1F)c1ccc(CNS(C)(=O)=O)c(F)c1 (centres unmarked) [Example 9]
7. CC(C(=O)NCc1ccc(C(F)(F)F)nc1-c1cccc(F)c1)c1ccc(CNS(C)(=O)=O)c(F)c1 (centres unmarked) [Example 7]

RESULT:
1: 28; 2: 3; 3: 41; 4: 2; 5: 68; 6: 47; 7: 61

For each of the molecules below, note its Ki.
1. Cc1cccc(-c2nc(C(F)(F)F)ccc2CNC(=O)C(C)c2ccc(CNS(C)(=O)=O)c(F)c2)c1C (centres unmarked) [Example 30]
2. Cc1cc(-c2nc(C(F)(F)F)ccc2CNC(=O)C(C)c2ccc(CNS(C)(=O)=O)c(F)c2)ccc1F (centres unmarked) [Example 35]
3. Cc1cccc(-c2nc(C(F)(F)F)ccc2CNC(=O)C(C)c2ccc(CNS(C)(=O)=O)cc2)c1 (centres unmarked) [Example 4]

RESULT:
1: 41; 2: 7; 3: 66

###

# Test target: vanilloid receptor 1 (VR1/TRPV1 receptor) (Homo sapiens, UniProt Q8NER1)
# Assay notes: Functional FLIPR Ca2+ influx assay on vanilloid receptor 1, capsaicin (Cap) stimulus
# Type: cell-based
# Condition details: Ki from IC50 by Cheng-Prusoff, read-out: (f) Ki (human being) [nM], Cap
What Ki was measured for each of the following?
Numbers only, in nM.

Solved entries (count: 4):
1) Cc1ccc(-c2nc(C(F)(F)F)ccc2CNC(=O)C(C)c2ccc(CNS(C)(=O)=O)c(F)c2)cc1F (centres unmarked) = 26
2) CCOc1cc(C)cc(-c2nc(C(F)(F)F)ccc2CNC(=O)C(C)c2ccc(CNS(C)(=O)=O)c(F)c2)c1 (centres unmarked) = 37
3) CC(C(=O)NCc1ccc(C(F)(F)F)nc1-c1cccc(Cl)c1)c1ccc(CNS(C)(=O)=O)c(F)c1 (centres unmarked) = 10
4) CCOc1ccc(-c2nc(C(F)(F)F)ccc2CNC(=O)C(C)c2ccc(CNS(C)(=O)=O)c(F)c2)cc1C (centres unmarked) = 12

Proceeding to the next molecule to report its Ki.
QUERY: // returns reported Ki for input Cc1ccc(F)c(-c2nc(C(F)(F)F)ccc2CNC(=O)C(C)c2ccc(CNS(C)(=O)=O)c(F)c2)c1 (centres unmarked)
RESULT: 16
